test: Antioxidant activity assessed as DPPH scavenging activity at 100 uM after 30 mins by UV spectrophotometry; assay type: physicochemical; conditions: 0.5 h
endpoint: Activity (%)
Output spec: scalar in %, unitless text.

Report Activity for O=C(O)Cn1c(=O)c(/C=C/c2ccc(O)cc2)nc2ccccc21 71.8

Report Activity for COc1cc(/C=C/c2nc3ccccc3n(CC(=O)O)c2=O)ccc1O 95.4

Report Activity for O=C(O)Cn1c(=O)c(/C=C/c2ccc(O)cc2)nc2ccc(F)cc21 67.2

Report Activity for O=C(O)Cn1c(=O)c(CCc2ccc(O)cc2)nc2ccccc21 16.2

Report Activity for O=C(O)Cn1c(=O)c(CCc2ccc(O)cc2)nc2ccc(F)cc21 14.7

====

biological target: Aldo-keto reductase family 1 member B1 (Rattus norvegicus)
Field 'label' (enum: Criterion met / Criterion not met). Set to Criterion met when IC50 is strictly under 300 nM; else Criterion not met.

Take the compound O=C(O)Cn1c(=O)c(Sc2ccc(Cl)cc2)nc2ccc(Br)cc21 and say whether its IC50 is less than 300 nM. Criterion not met

Take the compound O=C(O)Cn1c(=O)c(-c2ccc(F)cc2)nc2ccc(Cl)cc21 and say whether its IC50 is less than 300 nM. Criterion not met

Take the compound O=C(O)Cn1c(=O)c(-c2ccc(O)cc2O)nc2ccc(Cl)cc21 and say whether its IC50 is less than 300 nM. Criterion met

Take the compound O=C(O)Cn1c(=O)c(Sc2ccc(Br)cc2)nc2ccc(Cl)cc21 and say whether its IC50 is less than 300 nM. Criterion not met

Take the compound O=C(O)Cn1c(=O)c(-c2ccc(O)cc2O)nc2cc(Cl)ccc21 and say whether its IC50 is less than 300 nM. Criterion met

Take the compound O=C(O)Cn1c(=O)c(-c2ccccc2)nc2ccccc21 and say whether its IC50 is less than 300 nM. Criterion not met

Take the compound O=C(O)Cn1c(=O)c(-c2cc3ccccc3s2)nc2ccc(Cl)cc21 and say whether its IC50 is less than 300 nM. Criterion met

Take the compound O=C(O)Cn1c(=O)c(-c2ccc(O)cc2O)nc2ccc(Cc3ccc(F)cc3)cc21 and say whether its IC50 is less than 300 nM. Criterion not met

Take the compound COc1cc(/C=C/c2nc3ccccc3n(CC(=O)O)c2=O)ccc1O and say whether its IC50 is less than 300 nM. Criterion not met

Take the compound O=C(O)Cn1c(=O)c(-c2ccc(O)cc2O)nc2ccc(F)cc21 and say whether its IC50 is less than 300 nM. Criterion met

Take the compound O=C(O)Cn1c(=O)c(-c2ccc(O)cc2O)nc2ccc(Br)cc21 and say whether its IC50 is less than 300 nM. Criterion met

====

assay: Antioxidant activity assessed as DPPH scavenging activity after 30 mins by UV spectrophotometry; format: physicochemical
Assignment: determine reported IC50 for the given compounds.
Output spec: scalar in µM, unitless text.

Report IC50 for COc1cc(/C=C/c2nc3ccccc3n(CC(=O)O)c2=O)ccc1O 24.1

Report IC50 for O=C(O)Cn1c(=O)c(/C=C/c2ccc(O)cc2)nc2ccccc21 51.5

====

Assignment: determine reported Selectivity ratio for the given compounds.
species: Rattus norvegicus; assay: Selectivity ratio for Wistar rat lenses ALR2 over Wistar rat kidney ALR1; format: tissue-based; conditions: Lens of camera-type eye
When you answer, write just the number.

Report Selectivity ratio for O=C(O)Cn1c(=O)c(Sc2ccc(Cl)cc2)nc2ccc(Cl)cc21 5.1

Report Selectivity ratio for O=C(O)Cn1c(=O)c(Sc2ccc(Br)cc2)nc2ccc(Cl)cc21 6.1

Report Selectivity ratio for O=C(O)Cn1c(=O)c(Sc2ccc(Br)cc2)nc2ccc(F)cc21 1.9

Report Selectivity ratio for O=C(O)Cn1c(=O)c(Sc2ccc(Br)cc2)nc2ccc(Br)cc21 3.7

Report Selectivity ratio for O=C(O)Cn1c(=O)c(Sc2ccc(Cl)cc2)nc2ccc(Br)cc21 8.3

Report Selectivity ratio for O=C(O)Cn1c(=O)c(Sc2ccccc2)nc2ccccc21 2.7
